experimental.system: CYP2C19 (Homo sapiens, UniProt P33261)
Sequence (P33261 whole entry): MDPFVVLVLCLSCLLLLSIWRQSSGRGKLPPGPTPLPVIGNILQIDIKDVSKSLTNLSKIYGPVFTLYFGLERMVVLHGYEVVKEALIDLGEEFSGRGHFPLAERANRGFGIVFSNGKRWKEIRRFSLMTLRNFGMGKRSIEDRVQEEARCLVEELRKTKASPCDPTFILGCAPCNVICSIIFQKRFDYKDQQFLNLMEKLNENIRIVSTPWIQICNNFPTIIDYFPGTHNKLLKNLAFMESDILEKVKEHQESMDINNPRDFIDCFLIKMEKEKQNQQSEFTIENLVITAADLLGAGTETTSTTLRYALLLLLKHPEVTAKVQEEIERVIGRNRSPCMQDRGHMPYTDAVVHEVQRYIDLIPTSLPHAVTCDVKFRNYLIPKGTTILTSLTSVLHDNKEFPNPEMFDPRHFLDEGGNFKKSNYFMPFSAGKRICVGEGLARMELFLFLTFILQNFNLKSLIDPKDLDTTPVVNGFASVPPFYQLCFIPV
method.summary: Inhibition of CYP2C19 in human microsomes at 10 uM in the presence of NADPH relative to control
Format: ADME, Microsome

molecule	inhibition at 10 µM / %
COc1cc(C(C)O/C(=N\OC[C@H](O)CO)c2ccc(F)c(F)c2Nc2ccc(I)cc2F)c([N+](=O)[O-])cc1OC (stereo partly specified)	44.6

====

experimental.system: UniProtKB P05177
Sequence (P05177 whole entry): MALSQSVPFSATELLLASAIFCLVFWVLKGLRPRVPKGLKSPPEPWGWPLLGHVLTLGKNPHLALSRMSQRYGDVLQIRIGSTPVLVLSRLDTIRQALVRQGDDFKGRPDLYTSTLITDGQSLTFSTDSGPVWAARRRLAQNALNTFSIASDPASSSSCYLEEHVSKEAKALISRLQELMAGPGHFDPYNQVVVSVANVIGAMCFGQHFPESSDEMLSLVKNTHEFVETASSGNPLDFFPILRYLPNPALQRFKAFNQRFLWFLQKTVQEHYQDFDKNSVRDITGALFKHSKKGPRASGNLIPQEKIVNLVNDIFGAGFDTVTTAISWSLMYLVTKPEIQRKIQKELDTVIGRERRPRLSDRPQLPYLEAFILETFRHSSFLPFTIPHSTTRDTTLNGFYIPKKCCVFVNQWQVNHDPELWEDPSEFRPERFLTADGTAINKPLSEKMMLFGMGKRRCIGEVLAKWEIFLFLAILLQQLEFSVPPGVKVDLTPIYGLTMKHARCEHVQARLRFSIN
method.summary: Inhibition of CYP1A2 in human microsomes at 10 uM in the presence of NADPH relative to control
Assay type: ADME, Microsome

molecule	unit.info	inhibition at 10 µM
COc1cc(C(C)O/C(=N\OC[C@H](O)CO)c2ccc(F)c(F)c2Nc2ccc(I)cc2F)c([N+](=O)[O-])cc1OC (stereo partly specified)	%	0
